Reference source: patent US9963462B2

target: SNAP-hSPR (sepiapterin reductase, SPR) (Homo sapiens, UniProt P35270)
Sequence (P35270 whole entry): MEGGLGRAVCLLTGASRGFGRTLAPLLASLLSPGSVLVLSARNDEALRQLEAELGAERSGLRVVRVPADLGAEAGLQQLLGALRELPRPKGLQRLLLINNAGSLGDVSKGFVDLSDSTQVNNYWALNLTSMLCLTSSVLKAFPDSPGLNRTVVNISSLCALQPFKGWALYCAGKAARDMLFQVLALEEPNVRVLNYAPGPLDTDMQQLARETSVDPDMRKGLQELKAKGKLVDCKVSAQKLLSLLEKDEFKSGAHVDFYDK
Labelling field: enter class 1 if recorded IC50 is less than 7 nM. Enter class 0 if it equals or exceeds that cut-off.

Some entries whose results are on file:
>>> category_label("Cc1c(C(=O)N2CCN(S(=O)(=O)c3ccccc3)CC2)cnn1-c1nn2cccc2c(=O)[nH]1")
"class 1"
>>> category_label("O=C(c1cnn(-c2nc3ccsc3c(=O)[nH]2)c1)N1CCC(c2c[nH]c3ccccc23)CC1")
"class 0"
>>> category_label("O=C(c1cnc(-c2nc3ccsc3c(=O)[nH]2)s1)N1CCC(C(F)(F)F)CC1")
"class 0"
>>> category_label("Cc1c(C(=O)N2CCN(C(=O)OC(C)(C)C)C3(CCC3)C2)cnn1-c1nn2cccc2c(=O)[nH]1")
"class 1"
>>> category_label("Cc1c(C(=O)N2CCN(c3ccccc3)CC2)cnn1-c1nc2c(c(=O)[nH]1)CCC2")
"class 1"

Note: attention shifts to another entry.
Q) Check if IC50 falls below 7 nM for Cc1cc(=O)[nH]c(-n2ncc(C(=O)N3CCc4ccccc4C3)c2C(C)C)n1 .
A) class 0

* * *

Target or system SNAP-hSPR (sepiapterin reductase, SPR) (Homo sapiens, UniProt P35270); recorded quantity IC50.
The reply should contain only the number, in nM.

Examples with answers:
>>> measured_result("CCC(C#N)C1(F)CCN(C(=O)c2cnn(-c3nn4cccc4c(=O)[nH]3)c2C)CC1 (stereo not drawn)")
1
>>> measured_result("Cc1c(C(=O)N2CCC(C(=O)C3CC3)CC2)cnn1-c1nn2cccc2c(=O)[nH]1")
1
>>> measured_result("Cc1c(C(=O)N2CCc3ccccc3C2)cnn1-c1nc2sccc2c(=O)[nH]1")
3
>>> measured_result("O=C(c1cnn(-c2nn3cccc3c(=O)[nH]2)c1)N1CCC(CC(F)(F)F)CC1")
1
>>> measured_result("CCN(C)C(=O)c1cnn(-c2nc(C)cc(=O)[nH]2)c1C")
20
>>> measured_result("Cc1cc(=O)[nH]c(-n2ncc(C(=O)NC3CCCc4ccccc43)c2C)n1 (stereo not drawn)")
20

Q) Given the entry COC1(C)CCN(C(=O)c2cnn(-c3nn4cccc4c(=O)[nH]3)c2C)CC1 , report its measured IC50.
A) 1

Q) And what about the compound Cc1cc(=O)[nH]c(-n2ncc(C(=O)NC3CCCC3)c2C(F)(F)F)n1 ?
A) 80

Q) And what about the compound Cc1c(C(=O)N2CCC[C@@H](C(F)(F)F)C2)cnn1-c1nc2c(c(=O)[nH]1)CCC2 (single isomer, unassigned) ?
A) 7

* * *

Measured pIC50 of individual entries
molecular target: SNAP-hSPR (sepiapterin reductase, SPR) (Homo sapiens)
The scale used: pIC50 is minus the common logarithm of the concentration in molar units.

Examples with answers:
>>> measured_result("Cc1c(C(=O)N2CCC(C3CC3)CC2)cnn1-c1nc2ccsc2c(=O)[nH]1 [Q-0698]")
9.00
>>> measured_result("Cc1c(C(=O)N2CCC(c3nc(-c4cccnc4)cs3)CC2)cnn1-c1nn2cccc2c(=O)[nH]1 [Q-1097]")
9.00
>>> measured_result("Cc1cc(=O)[nH]c(-n2ncc(C(=O)NCCc3ccc(F)cc3)c2C)n1 [Q-0007]")
7.00
>>> measured_result("Cc1cc(-c2cnn(CCC(=O)N3CCc4ccccc4C3)c2)[nH]c(=O)n1 (single isomer, unassigned) [Q-0292]")
4.40
>>> measured_result("Cc1c(C(=O)N2CCC(C(F)(F)F)CC2)cnn1-c1nc2c(ccn2C)c(=O)[nH]1 [Q-0426]")
7.00

Q) Given the entry Cc1c(C(=O)N2CCN(c3nc(-c4ccncc4)cs3)CC2)cnn1-c1nn2cccc2c(=O)[nH]1 [Q-1182] , report its measured pIC50.
A) 9.00

Q) And what about the compound Cc1c(C(=O)N2CCc3ccccc3C2)cnn1-c1nc(C(F)(F)F)cc(=O)[nH]1 [Q-0393] ?
A) 8.22

Q) And what about the compound Cc1cc2nc(-n3ncc(C(=O)N4CCC(C(F)(F)F)CC4)c3C)[nH]c(=O)c2s1 [Q-0409] ?
A) 6.70

Q) And what about the compound O=C(c1cn(-c2nn3cccc3c(=O)[nH]2)nn1)N1CCC(C2CC2)CC1 [Q-1222] ?
A) 9.00

Q) And what about the compound Cc1c(C(=O)N2CCC(C3CC3)CC2)nnn1-c1nn2cccc2c(=O)[nH]1 [Q-1184] ?
A) 8.70

* * *

Target or system SNAP-hSPR (sepiapterin reductase, SPR) (Homo sapiens); recorded quantity IC50.
The reply should contain only the number, in nM.

Examples with answers:
>>> measured_result("Cc1nn(-c2nc3ccsc3c(=O)[nH]2)c(C)c1C(=O)N1CCC(C)(C)C1 [Q-0411]")
9
>>> measured_result("CNC(=O)c1cnn(-c2nc(C)cc(=O)[nH]2)c1C [Q-0316]")
300
>>> measured_result("Cc1cc(=O)[nH]c(-n2ccc(C(=O)N3CCc4ccccc4C3)n2)n1 [Q-0308]")
20
>>> measured_result("O=C(c1ccn(-c2nc3ccsc3c(=O)[nH]2)n1)N1CCC(C(F)(F)F)CC1 [Q-0390]")
20
>>> measured_result("COC(=O)c1cnn(-c2nc(C)cc(=O)[nH]2)c1C [Q-0310]")
60

Continue with the next compound.
Q) Given the entry Cc1c(C(=O)N2C[C@H]3CN(C(=O)OC(C)(C)C)C[C@H]32)cnn1-c1nn2cccc2c(=O)[nH]1 [Q-0842] , report its measured IC50.
A) 2

* * *

Target or system SNAP-hSPR (sepiapterin reductase, SPR) (Homo sapiens, UniProt P35270); recorded quantity IC50.
The reply should contain only the number, in nM.

Examples with answers:
>>> measured_result("Cc1c(C(=O)N2CCN(c3ncc(-c4ccccc4C#N)o3)CC2)cnn1-c1nn2cccc2c(=O)[nH]1")
6
>>> measured_result("Cc1c(C(=O)N2CCC(C3(C#N)CC3)CC2)cnn1-c1nc2c(c(=O)[nH]1)CCC2")
1
>>> measured_result("Cc1c(C(=O)N2CCN(S(C)(=O)=O)CC2)cnn1-c1nn2cccc2c(=O)[nH]1")
4
>>> measured_result("CCC1Cc2ccccc2N1C(=O)c1cnn(-c2nc(C)cc(=O)[nH]2)c1C (centres unmarked)")
7
>>> measured_result("Cc1c(C(=O)N2CC(c3ccccc3)C2)cnn1-c1nc2c(c(=O)[nH]1)CCC2")
6
>>> measured_result("Cc1c(C(=O)N2CC(N3CCC(F)(F)C3)C2)cnn1-c1nc2c(c(=O)[nH]1)CCC2")
4
>>> measured_result("Cc1c(C(=O)N2CCN(c3nc(-c4cccnc4)cs3)CC2)cnn1-c1nn2cccc2c(=O)[nH]1")
1

Continue with the next compound.
Q) Given the entry O=C(c1cnn(-c2nn3cccc3c(=O)[nH]2)c1)N1CCC(c2c[nH]c3ccccc23)CC1 , report its measured IC50.
A) 7

* * *

Measured pIC50 of individual entries
molecular target: SNAP-hSPR (sepiapterin reductase, SPR) (Homo sapiens)
The scale used: pIC50 is minus the common logarithm of the concentration in molar units.

Examples with answers:
>>> measured_result("Cc1c(C(=O)N2CC[C@H]3CCCC[C@H]3C2)cnn1-c1nc2ccsc2c(=O)[nH]1 [Q-0402]")
8.00
>>> measured_result("Cc1c(C(=O)N2CCC(CC(F)(F)F)CC2)cnn1-c1nn2cc(F)cc2c(=O)[nH]1 [Q-0747]")
8.10

Q) Given the entry Cc1cc2c(=O)[nH]c(-n3ncc(C(=O)N4CCC(C(F)(F)F)CC4)c3C)nc2s1 [Q-0413] , report its measured pIC50.
A) 5.66

Q) And what about the compound Cc1c(C(=O)N2CCC(C3(C#N)CCC3)CC2)cnn1-c1nc2c(c(=O)[nH]1)CCC2 [Q-1087] ?
A) 8.70

* * *

Target or system SNAP-hSPR (sepiapterin reductase, SPR) (Homo sapiens); recorded quantity IC50.
The reply should contain only the number, in nM.

Examples with answers:
>>> measured_result("Cc1c(C(=O)N2CCN(S(=O)(=O)CCC(F)(F)F)CC2)cnn1-c1nn2cccc2c(=O)[nH]1")
1
>>> measured_result("Cc1cc(=O)[nH]c(-n2ncc(C(=O)N3CCc4[nH]ncc4C3)c2C)n1")
10
>>> measured_result("Cc1c(C(=O)N2C3CCC2CC(C(F)(F)F)C3)cnn1-c1nn2cccc2c(=O)[nH]1 (stereo not shown)")
1

Continue with the next compound.
Q) Given the entry Cc1cc(=O)[nH]c(-n2cc(C(=O)N3CCC(C(F)(F)F)CC3)cn2)n1 , report its measured IC50.
A) 9

* * *

molecular target: SNAP-hSPR (sepiapterin reductase, SPR) (Homo sapiens)
pIC50: −log10 of the molar value.
The threshold is inclusive: pIC50 of exactly 8 counts as Condition met; values below receive Condition not met.

>>> category_label("Cc1c(C(=O)N2CCN(c3ccccc3Cl)CC2)cnn1-c1nc2c(c(=O)[nH]1)CCC2")
"Condition met"

Q) State whether the measured pIC50 reaches 8, counting equality as reaching it, for Cc1c(C(=O)N2CC3COCC(C3)C2)cnn1-c1nc2ccsc2c(=O)[nH]1
A) Condition not met

Q) And what about the molecule Cc1c(C(=O)N2CCN(CC3CCC3)[C@H](C)C2)cnn1-c1nn2cccc2c(=O)[nH]1 ?
A) Condition met
